Sourced from ChEMBL document CHEMBL4118102

Please consider the recorded pIC50 for Neuraminidase (Influenza A virus, UniProt B4URF0) in what follows.
Please report pIC50 as the negative decimal logarithm of the molar concentration, giving only the number.

smiles-notation: CC(=O)N[C@@H]1[C@@H](O)[C@@H](F)[C@](F)(C(=O)O)O[C@H]1[C@H](O)CCO
value-reported: 4.66

Read the next record carefully.
Case CC(=O)N[C@@H]1C[C@@H](F)[C@](F)(C(=O)O)O[C@H]1[C@H](O)[C@H](O)CO , Neuraminidase (Influenza A virus, UniProt B4URF0), pIC50 recorded as 6.01

* * *

Items are presented alongside their recorded T1/2.
assay-target: UniProt A5Z252
condition-info: Influenza A virus (A/chicken/Bangli/BBVD-563/2007(H5N1)); clade 2
Return type: number; implicit unit min.

smiles-notation: CC(=O)N[C@@H]1[C@@H](O)[C@@H](F)[C@](F)(C(=O)O)O[C@H]1C[C@H](O)CO
assay-target: UniProt A5Z252
measurement-unit: min
T1/2: 12.3
//
smiles-notation: CC(=O)N[C@@H]1[C@@H](O)[C@@H](F)[C@](F)(C(=O)O)O[C@H]1[C@H](O)[C@@H](C)O
assay-target: UniProt A5Z252
measurement-unit: min
T1/2: 16.9
//
smiles-notation: CC(=O)N[C@H]1[C@H]([C@H](O)[C@H](O)CO)OC(C(=O)O)=C[C@@H]1NC(=N)N
assay-target: UniProt A5Z252
measurement-unit: min
T1/2: 72.8

# compound CC(=O)N[C@@H]1C[C@@H](F)[C@](F)(C(=O)O)O[C@H]1[C@H](O)[C@H](O)CO ; its T1/2 = 10.6

# compound CC(=O)N[C@@H]1[C@@H](O)[C@@H](F)[C@](F)(C(=O)O)O[C@H]1[C@H](O)CCO ; its T1/2 = 23.6

# compound CC(=O)N[C@@H]1[C@@H](O)[C@@H](F)[C@](F)(C(=O)O)O[C@H]1[C@H](O)[C@H](O)CO ; its T1/2 = 8.5
